Recorded IC50 by entry
molecular target: Mitogen-activated protein kinase 10 (Homo sapiens, UniProt P53779); assay: Inhibition of JNK3 (unknown origin) using ATF2 as substrate incubated for 40 mins in presence of [gamma33P]ATP by scintillation counting analysis
Sequence (P53779 whole entry): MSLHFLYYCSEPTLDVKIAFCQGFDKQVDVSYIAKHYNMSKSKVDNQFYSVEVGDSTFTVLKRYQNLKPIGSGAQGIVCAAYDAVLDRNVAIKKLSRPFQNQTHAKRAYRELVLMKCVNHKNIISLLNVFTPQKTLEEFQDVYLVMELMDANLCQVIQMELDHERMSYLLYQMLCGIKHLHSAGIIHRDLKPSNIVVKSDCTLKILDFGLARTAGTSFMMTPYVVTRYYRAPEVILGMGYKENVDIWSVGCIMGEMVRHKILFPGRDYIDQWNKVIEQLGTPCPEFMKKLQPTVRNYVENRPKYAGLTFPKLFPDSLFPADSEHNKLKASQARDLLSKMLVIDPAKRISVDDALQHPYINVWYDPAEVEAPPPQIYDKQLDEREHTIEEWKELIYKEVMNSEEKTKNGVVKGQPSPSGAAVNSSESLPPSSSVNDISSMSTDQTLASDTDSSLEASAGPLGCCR
# include the unit after the value

Worked cases, IC50 given:
> print(dat)
                                   compound  assay.result
1  CNC(=O)C1Cc2nc(-c3ccc4c(c3)OCO4)n(-c3ccnc(N[C@@H]4CCN(C(=O)C5CC5)C4)n3)c2C1 (some centres undefined)       93.9 nM
2  CNC(=O)C1Cc2nc(-c3ccc(Cl)c(Cl)c3)n(-c3ccnc(N[C@@H]4CCN(C(=O)C5CC5)C4)n3)c2C1 (some centres undefined)       9.36 nM
3  NC(=O)C1Cc2nc(-c3ccc(Cl)c(Cl)c3)n(-c3ccnc(N[C@@H]4CCCN(C(=O)C5CC5)C4)n3)c2C1 (some centres undefined)       0.73 nM

Kindly consider the entry below.
## Input Determine reported IC50 for CCOC(=O)C1Cc2nc(-c3ccc4c(c3)CCO4)n(-c3ccnc(N[C@@H]4CCN(C(=O)C5CC5)C4)n3)c2C1 (some centres undefined) ; test system: Mitogen-activated protein kinase 10 (Homo sapiens, UniProt P53779).
## Output 21.5 nM
